Below, each entry is listed alongside its reported food.
assay: Animal parameters (food, body weight, liver weight/body weight, mortality) in rats; type: in vivo; conditions: % of control; grams eaten per day per rat; diet 0.3%, 4 days; N = 5
Report only the number, with the unit % understood.

compound="CC(C)CCCC(C)CCOc1cc(C(C)(C)C)c(O)c(C(C)(C)C)c1 (stereo not shown) [MDL 104,102]" measurement_name=food numeric_result=92
compound="CC(C)=CCC[C@H](C)CCOc1cc(C(C)(C)C)c(O)c(C(C)(C)C)c1 [MDL 103,294]" measurement_name=food numeric_result=108
compound="CC(C)=CCC[C@H](C)CCSc1ccc(O)c(C(C)(C)C)c1 [MDL 103,714]" measurement_name=food numeric_result=102
compound="CC(CCCC(C)(C)O)CCSc1cc(C(C)(C)C)c(O)c(C(C)(C)C)c1 (stereo not shown) [MDL 104,487]" measurement_name=food numeric_result=90
compound="CC(C)=CCCC(C)CCSc1cc(C(C)(C)C)c(O)c(C(C)(C)C)c1 (stereo not shown) [MDL 103,960]" measurement_name=food numeric_result=105
compound="CC(C)CCCC(C)CCOc1ccc(O)c(C(C)(C)C)c1 (stereo not shown) [MDL 104,191]" measurement_name=food numeric_result=76
compound="CC(C)=CCC[C@@H](C)CCOc1cc(C(C)(C)C)c(O)c(C(C)(C)C)c1 [MDL 104,535]" measurement_name=food numeric_result=95
compound="CC(C)=CCC[C@H](C)CCOc1cc(C(C)(C)C)c(O)cc1C(C)(C)C [MDL 107,059]" measurement_name=food numeric_result=95
compound="CC(C)=CCCC(C)CCOc1ccc(O)c(C(C)(C)C)c1 (stereo not shown) [MDL 105,411]" measurement_name=food numeric_result=95

I'd like to know its food. The compound in question is CC(C)=CCC[C@H](C)CCOc1ccc(O)c(C(C)(C)C)c1 (stereo in doubt) [MDL 103,649] 95

====

assay: Animal parameters (food, body weight, liver weight/body weight, mortality) in rats; assay type: in vivo; conditions: % of control; weight in grams; rat; diet 0.3%, 4 days; N = 5
measurement name: body wt. (%)
Answer in %, number only, no unit symbol.

Recorded body wt., per entry:
compound="CC(C)=CCC[C@H](C)CCOc1ccc(O)c(C(C)(C)C)c1 (stereo in doubt)" readout_units=% numeric_result=94
compound="CC(C)=CCCC(C)CCSc1cc(C(C)(C)C)c(O)c(C(C)(C)C)c1 (stereo not shown)" readout_units=% numeric_result=100
compound=CC(C)=CCC[C@H](C)CCOc1cc(C(C)(C)C)c(O)c(C(C)(C)C)c1 readout_units=% numeric_result=101
compound="CC(CCCC(C)(C)O)CCSc1cc(C(C)(C)C)c(O)c(C(C)(C)C)c1 (stereo not shown)" readout_units=% numeric_result=95
compound=CC(C)=CCC[C@H](C)CCOc1cc(C(C)(C)C)c(O)cc1C(C)(C)C readout_units=% numeric_result=95
compound="CC(C)=CCCC(C)CCOc1ccc(O)c(C(C)(C)C)c1 (stereo not shown)" readout_units=% numeric_result=101
compound=CC(C)=CCC[C@H](C)CCSc1ccc(O)c(C(C)(C)C)c1 readout_units=% numeric_result=103
compound="CC(C)CCCC(C)CCOc1ccc(O)c(C(C)(C)C)c1 (stereo not shown)" readout_units=% numeric_result=92

Reported body wt. for CC(C)CCCC(C)CCOc1cc(C(C)(C)C)c(O)c(C(C)(C)C)c1 (stereo not shown) : what is it? 97

Same question for "CC(C)=CCC[C@@H](C)CCOc1cc(C(C)(C)C)c(O)c(C(C)(C)C)c1" please. 102

====

system: Male Sprague-Dawley Rats; assay: Serum clinical chemistries in rats fed compound as dietary admixture; assay type: in vivo; settings: % of control; glucose in rat serum; diet 0.3%, 4 days; N = 5
Reported GLUC by item:
Value expressed in %; do not type the unit.

Some molecules with recorded GLUC:
molecule="CC(C)CCCC(C)CCOc1cc(C(C)(C)C)c(O)c(C(C)(C)C)c1 (stereo not shown)" measurement_name=GLUC readout_units=% numeric_result=98
molecule="CC(C)CCCC(C)CCOc1ccc(O)c(C(C)(C)C)c1 (stereo not shown)" measurement_name=GLUC readout_units=% numeric_result=106
molecule="CC(CCCC(C)(C)O)CCSc1cc(C(C)(C)C)c(O)c(C(C)(C)C)c1 (stereo not shown)" measurement_name=GLUC readout_units=% numeric_result=92
molecule="CC(C)=CCC[C@H](C)CCOc1ccc(O)c(C(C)(C)C)c1 (stereo in doubt)" measurement_name=GLUC readout_units=% numeric_result=101
molecule=CC(C)=CCC[C@H](C)CCOc1cc(C(C)(C)C)c(O)c(C(C)(C)C)c1 measurement_name=GLUC readout_units=% numeric_result=103

Item CC(C)=CCCC(C)CCOc1ccc(O)c(C(C)(C)C)c1 (stereo not shown) has what recorded GLUC? 96

Also "CC(C)=CCC[C@H](C)CCSc1ccc(O)c(C(C)(C)C)c1" , if possible. 95

Same thing, different molecule: "CC(C)=CCC[C@@H](C)CCOc1cc(C(C)(C)C)c(O)c(C(C)(C)C)c1" 112

Repeat with CC(C)=CCCC(C)CCSc1cc(C(C)(C)C)c(O)c(C(C)(C)C)c1 (stereo not shown) 110

What would you report for "CC(C)=CCC[C@H](C)CCOc1cc(C(C)(C)C)c(O)cc1C(C)(C)C" ? 96

====

experiment: Animal parameters (food, body weight, liver weight/body weight, mortality) in rats; assay type: in vivo; conditions: % of control; liver weight/body weight; rat; diet 0.3%, 4 days; N = 5
measurement name: lw/bw (%)
Reply numerically in %, unit not repeated.

molecule=CC(C)=CCC[C@H](C)CCSc1ccc(O)c(C(C)(C)C)c1 measurement_name=lw/bw readout_units=% numeric_result=121
molecule=CC(C)=CCC[C@@H](C)CCOc1cc(C(C)(C)C)c(O)c(C(C)(C)C)c1 measurement_name=lw/bw readout_units=% numeric_result=119
molecule="CC(C)CCCC(C)CCOc1cc(C(C)(C)C)c(O)c(C(C)(C)C)c1 (stereo not shown)" measurement_name=lw/bw readout_units=% numeric_result=121
molecule="CC(C)=CCC[C@H](C)CCOc1ccc(O)c(C(C)(C)C)c1 (stereo in doubt)" measurement_name=lw/bw readout_units=% numeric_result=111

Switching to the query record.
May I ask what lw/bw has been recorded for CC(CCCC(C)(C)O)CCSc1cc(C(C)(C)C)c(O)c(C(C)(C)C)c1 (stereo not shown) ? 150

====

experiment: HPLC quantitation of compound and metabolite concentration in rat serum and liver; type: in vivo; conditions: male, Sprague-Dawley, oral, 0.3 % in chow; parent compound concentration in rat serum; diet 0.3%, 4 days; mean N = 5; read-out: Serum Parent
Response field label takes True when concentration at 5 day is strictly below 20000 ng/mL and False in all other cases.

Before answering, review these 4 worked examples.
molecule="CC(C)=CCC[C@H](C)CCOc1cc(C(C)(C)C)c(O)c(C(C)(C)C)c1 [MDL 103,294]" group_label=False
molecule="CC(C)=CCC[C@H](C)CCOc1ccc(O)c(C(C)(C)C)c1 (stereo in doubt) [MDL 103,649]" group_label=True
molecule="CC(C)=CCCC(C)CCOc1ccc(O)c(C(C)(C)C)c1 (centres unmarked) [MDL 105,411]" group_label=True
molecule="CC(C)CCCC(C)CCOc1cc(C(C)(C)C)c(O)c(C(C)(C)C)c1 (centres unmarked) [MDL 104,102]" group_label=False

API: query returns whether the molecule falls strictly under 20000 ng/mL in concentration at 5 day. Query: CC(C)CCCC(C)CCOc1ccc(O)c(C(C)(C)C)c1 (centres unmarked) [MDL 104,191] True

====

experiment: HPLC quantitation of compound and metabolite concentration in rat serum and liver; assay type: in vivo; conditions: male, Sprague-Dawley, oral, 0.3 % in chow; parent compound concentration in rat serum; diet 0.3%, 4 days; mean N = 5; read-out: Serum Parent
measurement name: concentration at 5 day (ng/mL)
I only need the number, in ng/mL, no unit after it.

Reference set, count: 4
molecule="CC(C)=CCCC(C)CCSc1cc(C(C)(C)C)c(O)c(C(C)(C)C)c1 (centres unmarked)" measurement_name="concentration at 5 day" readout_units=ng/mL numeric_result=8700
molecule=CC(C)=CCC[C@H](C)CCSc1ccc(O)c(C(C)(C)C)c1 measurement_name="concentration at 5 day" readout_units=ng/mL numeric_result=2700
molecule=CC(C)=CCC[C@@H](C)CCOc1cc(C(C)(C)C)c(O)c(C(C)(C)C)c1 measurement_name="concentration at 5 day" readout_units=ng/mL numeric_result=16300
molecule=CC(C)=CCC[C@H](C)CCOc1cc(C(C)(C)C)c(O)cc1C(C)(C)C measurement_name="concentration at 5 day" readout_units=ng/mL numeric_result=0

Now look at this one.
concentration at 5 day for CC(CCCC(C)(C)O)CCSc1cc(C(C)(C)C)c(O)c(C(C)(C)C)c1 (centres unmarked) ? 4100
